Origin of measurements: patent US20230322724A1

system_tested: recombinant P300 bromodomain (Homo sapiens, UniProt Q09472)
Construct: recombinant P300 bromodomain obtained from BPS Bioscience, USA
Sequence (Q09472 1049-1156 limits assumed): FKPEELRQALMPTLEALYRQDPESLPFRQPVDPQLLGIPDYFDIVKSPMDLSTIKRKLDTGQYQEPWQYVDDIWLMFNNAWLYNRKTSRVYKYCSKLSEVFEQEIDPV
assay_info: P300 TR-FRET displacement assay
details: dose-response, read-out: IC50 (group A, B, C)
Description: The potency of compounds to inhibit P300 enzyme was tested in a TR-FRET displacement assay using recombinant P300 bromodomain obtained from BPS Bioscience, USA. The assay buffer was 50 mM HEPES (pH 7.5), 50 mM NaCl, 0.008% Brij 35, 0.01% BSA, 1 mM TCEP. […] Fluorescence emission of the samples at 665 and 615 nm were measured at an excitation of 340 nm and their ratio was plotted against the compound concentrations to generate dose-response curve. […]
pIC50: −log10 of the molar value.
In this section we review reported pIC50 values for a set of compounds.
value_kind: pIC50

compound: COc1cc(N2CCN(C)c3cc(-c4cnc(O)nc4)c(C#N)cc32)c2cc(C)c(=O)n(C)c2c1
result: > 7.60

compound: COc1cc(N2CCN(C)c3ccc(S(N)(=O)=O)cc32)c2cc(C)c(=O)n(C)c2c1
result: > 7.60

compound: Cc1cc2c(N3CCCc4cc(-c5cnn(C)c5)c(C(F)F)cc43)nc(N3CC[C@H](O)C3)cc2n(C)c1=O
result: 7.30 to 7.60

compound: COc1cc(N2CCN(C)c3cc(-c4ccn(C)n4)c(C#N)cc32)c2cc(C)c(=O)n(C)c2c1
result: > 7.60

compound: Cc1cc2c(N3CCN(C)c4cc(-c5cnn(C)c5)c(C#N)cc43)cc(OCC3CCCN(C)C3)cc2n(C)c1=O (stereo not shown) [Example 35]
result: > 7.60

compound: Cc1cc2c(N3CCN(C)c4cc(-c5cnn(C)c5)ccc43)cccc2[nH]c1=O
result: < 4.30

compound: Cc1cc2c(N3CCCc4cc(-c5cnn(C)c5)c(C(F)F)cc43)nc(N3CC[C@@H](O)C3)cc2n(C)c1=O
result: > 7.60

* * *

system_tested: recombinant CREBBP bromodomain (Homo sapiens, UniProt Q92793)
Construct: recombinant CREBBP bromodomain obtained from BPS Bioscience, USA; purchased BPS Bioscience, USA
Sequence (Q92793 1085-1192 limits assumed): as the sequence (Q09472 1049-1156 limits assumed) above, with S47N, I73V, Y93F, S98A counted along it
assay_info: CBP TR-FRET displacement assay
Assay type: binding
details: compound at 10 μM
In this section we review reported inhibition at 10 µM values for a set of compounds.

compound: Cc1cc2c(N3CCN(C)c4cc(-c5cnn(C)c5)c(C#N)cc43)cc(OCC3CCCN(C)C3)cc2n(C)c1=O (stereo not drawn) [Example 35]
system_tested: recombinant CREBBP bromodomain (Homo sapiens, UniProt Q92793)
inhibition at 10 µM [%]: 96
--
compound: Cc1ccc2[nH]c(=O)c(C)cc2c1N1CCN(C)c2cc(-c3cnn(C)c3)c(C#N)cc21 [Example 38]
system_tested: recombinant CREBBP bromodomain (Homo sapiens, UniProt Q92793)
inhibition at 10 µM [%]: 98
--
compound: COc1cc(N2CCN(C)c3cc(-c4cnn(C)c4)c(C#N)cc32)c2cc(C)c(=O)[nH]c2c1 [Example 7]
system_tested: recombinant CREBBP bromodomain (Homo sapiens, UniProt Q92793)
inhibition at 10 µM [%]: 90
--
compound: Cc1cc2c(N3CCCN(C)c4cc(-c5cnn(C)c5)c(C#N)cc43)cccc2[nH]c1=O [Example 5]
system_tested: recombinant CREBBP bromodomain (Homo sapiens, UniProt Q92793)
inhibition at 10 µM [%]: 38
--
compound: Cc1cc2c(N3CCN(C)c4cc(-c5cnn(C)c5)c(C#N)cc43)cc(OCC3CCCN(C)C3)cc2n(C)c1=O (single isomer, unassigned) [Example 247]
system_tested: recombinant CREBBP bromodomain (Homo sapiens, UniProt Q92793)
inhibition at 10 µM [%]: 95
--
compound: COc1cc(N2CCN(C)c3cc(-c4cnn(C)c4)c(C#N)cc32)c2cc(C)c(=O)n(C)c2c1 [Example 1]
system_tested: recombinant CREBBP bromodomain (Homo sapiens, UniProt Q92793)
inhibition at 10 µM [%]: 99

* * *

system_tested: recombinant CREBBP bromodomain (Homo sapiens)
Construct: recombinant CREBBP bromodomain obtained from BPS Bioscience, USA
assay_info: CBP TR-FRET displacement assay
details: dose-response, read-out: IC50 (group A, B, C)
pIC50: −log10 of the molar value.
value_kind: pIC50

molecule: COc1cc(N2CCc3c(c(-c4cnn(C)c4)nn3C)C2)c2cc(C)c(=O)n(C)c2c1 [Example 191]
system_tested: recombinant CREBBP bromodomain (Homo sapiens)
value_kind: pIC50
result: < 8.00
--
molecule: COc1cc2c(cc1-c1cnn(C)c1)C(C)CCN2c1nc(C2CCOCC2)cc2c1cc(C)c(=O)n2C (stereo not drawn) [Example 239]
system_tested: recombinant CREBBP bromodomain (Homo sapiens)
value_kind: pIC50
result: 7.00 to 7.29
--
molecule: Cc1cc2c(N3CCN(C)c4cc(C5=CCN(C)CC5)ccc43)cccc2n(C)c1=O [Example 44]
system_tested: recombinant CREBBP bromodomain (Homo sapiens)
value_kind: pIC50
result: < 8.00
--
molecule: CNS(=O)(=O)c1ccc2c(c1)N(c1cc(OC)cc3c1cc(C)c(=O)n3C)CCN2C [Example 95]
system_tested: recombinant CREBBP bromodomain (Homo sapiens)
value_kind: pIC50
result: > 7.30
--
molecule: Cc1cc2c(N3CCCc4cc(N5CCC(C)(N)CC5)c(C(F)F)cc43)nc(C3CCOCC3)cc2n(C)c1=O [Example 237]
system_tested: recombinant CREBBP bromodomain (Homo sapiens)
value_kind: pIC50
result: > 7.30
--
molecule: Cc1cc2c(N3CCN(C)c4cc(-c5cnn(C)c5)[n+]([O-])cc43)cc(N3CCOCC3)cc2n(C)c1=O [Example 160]
system_tested: recombinant CREBBP bromodomain (Homo sapiens)
value_kind: pIC50
result: < 8.00
--
molecule: Cc1cc2c(N3CCCc4cc(-c5cnn(C)c5)c(C(F)F)cc43)nc(N3CCOCC3)cc2n(C)c1=O [Example 234]
system_tested: recombinant CREBBP bromodomain (Homo sapiens)
value_kind: pIC50
result: > 7.30
--
molecule: Cc1cc2c(N3CCN(C)c4cc(-c5cnn(C)c5)c(C#N)cc43)cc(OCCN(C)C)cc2n(C)c1=O [Example 39]
system_tested: recombinant CREBBP bromodomain (Homo sapiens)
value_kind: pIC50
result: > 7.30
--
molecule: CC(=O)N1CCN(CCOc2cc(N3CCN(C)c4cc(-c5cnn(C)c5)c(C#N)cc43)c3cc(C)c(=O)n(C)c3c2)CC1 [Example 61]
system_tested: recombinant CREBBP bromodomain (Homo sapiens)
value_kind: pIC50
result: > 7.30
--
molecule: Cc1cc2c(N3CCCc4cc(-c5cnn(C)c5)c(C(F)F)cc43)cncc2n(C)c1=O [Example 180]
system_tested: recombinant CREBBP bromodomain (Homo sapiens)
value_kind: pIC50
result: 7.00 to 7.29
--
molecule: Cc1cc2c(N3CCN(C)c4cc(F)c(S(N)(=O)=O)cc43)cccc2n(C)c1=O [Example 87]
system_tested: recombinant CREBBP bromodomain (Homo sapiens)
value_kind: pIC50
result: 7.00 to 7.29
--
molecule: COc1cc(N2CCN(C)c3cc(-c4ccn(C)n4)c(C#N)cc32)c2cc(C)c(=O)n(C)c2c1 [Example 14]
system_tested: recombinant CREBBP bromodomain (Homo sapiens)
value_kind: pIC50
result: > 7.30
--
molecule: Cc1cc2c(N3CCN(C)c4cc(-c5cnn(C)c5)c(C#N)cc43)cc(OCCN3CCOCC3)cc2n(C)c1=O [Example 36]
system_tested: recombinant CREBBP bromodomain (Homo sapiens)
value_kind: pIC50
result: > 7.30
--
molecule: COc1cc(N2CCN(C)c3ccc(S(=O)(=O)N(C)C)cc32)c2cc(C)c(=O)n(C)c2c1 [Example 93]
system_tested: recombinant CREBBP bromodomain (Homo sapiens)
value_kind: pIC50
result: 7.00 to 7.29
--
molecule: CC(=O)NC1CCN(c2cc3c(cc(C)c(=O)n3C)c(N3CCCc4cc(-c5cnn(C)c5)c(C(F)F)cc43)n2)C1 (stereo not drawn) [Example 216]
system_tested: recombinant CREBBP bromodomain (Homo sapiens)
value_kind: pIC50
result: > 7.30

* * *

In this section we review reported pIC50 values for a set of compounds.
system_tested: recombinant CREBBP bromodomain (Homo sapiens, UniProt Q92793)
Construct: recombinant CREBBP bromodomain obtained from BPS Bioscience, USA
assay_info: CBP TR-FRET displacement assay
details: dose-response, read-out: IC50 (group A, B, C)
pIC50: −log10 of the molar value.

compound: Cc1cc2c(N3CCN(C)c4cc(-c5cnn(C)c5)ncc43)cc(OCCN3CCOCC3)cc2n(C)c1=O
system_tested: recombinant CREBBP bromodomain (Homo sapiens, UniProt Q92793)
pIC50: 7.00 to 7.29
//
compound: COC(=O)c1cc2c(cc1C#N)N(c1cc(OC)cc3c1cc(C)c(=O)n3C)CCN2C
system_tested: recombinant CREBBP bromodomain (Homo sapiens, UniProt Q92793)
pIC50: > 7.30
//
compound: Cc1cc2c(N3CCCc4cc(C5CCCO5)c(C(F)F)cc43)nc(N3CC[C@@H](O)C3)cc2n(C)c1=O (stereo partly drawn)
system_tested: recombinant CREBBP bromodomain (Homo sapiens, UniProt Q92793)
pIC50: 7.00 to 7.29
//
compound: Cc1cc2c(N3CCN(C)c4cc(-c5cnn(C)c5)c(F)cc43)cc(N(C)C)cc2n(C)c1=O
system_tested: recombinant CREBBP bromodomain (Homo sapiens, UniProt Q92793)
pIC50: > 7.30
//
compound: Cc1cc2c(N3CCN(C)c4cc(-c5cnn(C)c5)c(C#N)cc43)cc(OCC3CCCN(C)C3)cc2n(C)c1=O (stereo not drawn) [Example 35]
system_tested: recombinant CREBBP bromodomain (Homo sapiens, UniProt Q92793)
pIC50: > 7.30
//
compound: CNC(=O)N1CCN(c2cccc3c2cc(C)c(=O)n3C)c2ccc(-c3cnn(C)c3)cc21
system_tested: recombinant CREBBP bromodomain (Homo sapiens, UniProt Q92793)
pIC50: < 8.00
//
compound: COc1cc(N2CCN(C)c3ccc(S(N)(=O)=O)cc32)c2cc(C)c(=O)n(C)c2c1
system_tested: recombinant CREBBP bromodomain (Homo sapiens, UniProt Q92793)
pIC50: > 7.30
//
compound: Cc1cc2c(N3CCCc4cc(-c5cnn(C)c5)c(C(F)F)cc43)nc(N3CC4(COC4)C3)cc2n(C)c1=O
system_tested: recombinant CREBBP bromodomain (Homo sapiens, UniProt Q92793)
pIC50: > 7.30
//
compound: COc1cc(N2CCN(C3CC3)c3cc(N4CCN(C)CC4)c(C#N)cc32)c2cc(C)c(=O)n(C)c2c1
system_tested: recombinant CREBBP bromodomain (Homo sapiens, UniProt Q92793)
pIC50: > 7.30
//
compound: COc1cc(N2CCN(C)c3cc(N4CCN(C)CC4)c(C#N)cc32)c2cc(C)c(=O)n(C)c2c1
system_tested: recombinant CREBBP bromodomain (Homo sapiens, UniProt Q92793)
pIC50: > 7.30
//
compound: Cc1cc2c(N3CCN(CC(=O)O)c4cc(-c5cnn(C)c5)ncc43)cc(N3CCOCC3)cc2n(C)c1=O
system_tested: recombinant CREBBP bromodomain (Homo sapiens, UniProt Q92793)
pIC50: 7.00 to 7.29
//
compound: Cc1cc2c(N3CCCc4cc(-c5nnn(C)n5)c(C(F)F)cc43)nc(N3CCOCC3)cc2n(C)c1=O
system_tested: recombinant CREBBP bromodomain (Homo sapiens, UniProt Q92793)
pIC50: 7.00 to 7.29
//
compound: COc1cc(N2CCN(C)c3ccc(S(=O)(=O)NC(C)=O)cc32)c2cc(C)c(=O)n(C)c2c1
system_tested: recombinant CREBBP bromodomain (Homo sapiens, UniProt Q92793)
pIC50: > 7.30
//
compound: CNC(=O)CN1CCN(c2cc(N3CCOCC3)cc3c2cc(C)c(=O)n3C)c2cnc(-c3cnn(C)c3)cc21
system_tested: recombinant CREBBP bromodomain (Homo sapiens, UniProt Q92793)
pIC50: > 7.30
//
compound: CNC(=O)C1CCN(c2cc3c(cc(C)c(=O)n3C)c(N3CCN(C)c4cc(-c5cnn(C)c5)ncc43)n2)C1 (stereo not drawn)
system_tested: recombinant CREBBP bromodomain (Homo sapiens, UniProt Q92793)
pIC50: 7.00 to 7.29
